assay: compound effects on lung adenocarcinoma cell viability – A549, calcein-AM fluorescence, 48 h, basal, profiling panel (AID 1162); settings: higher = more signal; further: test concentration not given here
readout-kind: z-score
Lab note: jot the number down without any unit.

Would you please look over these solved cases?
N#Cc1ccc(-c2cccc(=O)o2)cc1; -0.719
CCCN1C(=O)[C@@]2(c3ccc([N+](=O)[O-])cc3)CC(=O)N(CC34CC5CC(CC(C5)C3)C4)[C@@H]2c2ccc(CO)cc21; 0.129
O=C1O[C@H](c2ccccc2)[C@H](c2ccccc2)N2[C@H]1[C@@H](C(=O)N1CCN(c3ncccn3)CC1)[C@]1(C(=O)Nc3ccc(C#CCCO)cc31)[C@H]2c1ccc(O)cc1; 0.356
COC(=O)[C@@]1(Cc2ccc(F)cc2)[C@H]2c3cc(C(=O)N4CCCC4)n(Cc4cc(F)cc5c4OCOC5)c3C[C@H]2CN1C(=O)c1ccccc1; -1.14
COc1ccc(CCNC(=O)[C@@H]2c3ccccc3C(=O)N(Cc3ccccc3OC)[C@H]2c2ccc(CO)cc2)cc1; 0.41
COCCOC(=O)N1C(=O)[C@@]2(c3cc(C#CCNC(N)=O)ccc31)[C@H](C(=O)Nc1nc3ccccc3s1)[C@H]1C(=O)O[C@H](c3ccccc3)[C@H](c3ccccc3)N1[C@@H]2c1ccccc1OCCO; 1.01
CN(C)CCCC[C@@H]1NC(=O)[C@@H]2C[C@H](C(=O)NCCCCCN)[C@H](c3cccc(OCCO)c3)N2C1=O; 2.2
C=CC[C@@]1(C(=O)N(C)C)N=C(c2ccc(OCCCO)cc2)O[C@@H]1c1ccccc1CN=[N+]=[N-]; 1.01
[N-]=[N+]=NCc1ccccc1[C@@H]1OC(c2ccc(OCCCO)cc2)=N[C@]1(Cc1ccccc1N=[N+]=[N-])C(=O)O; 0.143
CCC(CC)C(O)C1C=CC2C(=O)N(c3ccccc3)C(=O)C2N1Nc1ccccc1F (stereo not given); 0.21

Provide measured z-score value, entry: Cc1ccc(N2C(=O)c3ccccc3[C@](C)(C(=O)NCCCN(C)C)[C@@H]2c2ccc(CO)cc2)nc1 0.235

Assign z-score to the following record: CC(=O)NCCCC[C@@H]1NC(=O)[C@H]2C[C@@H](C(=O)NCCCCCCNC(=O)CS)[C@@H](c3cccc(OCCO)c3)N2C1=O -0.769

Supply recorded z-score for CC(C)NC(=O)[C@@H]1c2ccccc2C(=O)N(Cc2ccc(OC(F)(F)F)cc2)[C@H]1c1ccc(CO)cc1 here. 0.531

Look up z-score of O=C1NC(=O)C2C1C=CC(C(O)c1ccc(B(O)O)cc1)N2Nc1ccc(Cl)cc1Cl (stereo not given) and report it. -0.591

Give z-score for COc1ccc(C(O)C2C=CC3C(=O)N(c4ccccc4)C(=O)C3N2Nc2ccc(C#N)cc2)cc1OCc1ccccc1 (stereo not given) 0.233

* * *

composite z-score for assorted compounds
assay: COS7 lysate on small-molecule microarray, probe aHis, 635 nm (AID 1123); conditions: COS7 cell lysate, fluorescence, higher = more signal;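 further: z-score combines 667nm fluorescence intensity with signal-to-noise per printed compound spot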
# print the numeric value only

CCOc1cc(C(O)C2C=CC3C(=O)N(c4ccccc4)C(=O)C3N2Nc2ccccc2F)ccc1O (configuration not stated); 2.75
C=CC[C@@]1(C(=O)OC)N=C(c2ccc(OCCCO)cc2)O[C@@H]1c1ccccc1N=[N+]=[N-]; 2.76
CCCCCCc1nc(-c2ccc(-c3ccc(Cl)c(Cl)c3)o2)cc2c1[Si](C(C)C)(C(C)C)OC2; 0.445
C=CC[C@@]1(C(=O)N(C)C)N=C(c2ccc(OCCCO)cc2)O[C@@H]1c1ccccc1CN=[N+]=[N-]; 2.48

Using the record for COc1ccc(C(=O)Nc2ccc3c(c2)[C@@]2(O[C@H](CCO)[C@@H]([Si](C)(C)c4ccc(OC)cc4)[C@@H]2C)C(=O)N3Cc2ccccc2)cc1 , state its measured composite z-score. 0.88

Please indicate composite z-score recorded for COc1ccc([Si](C)(C)[C@H]2[C@H](CC(=O)N3Cc4ccccc4C[C@H]3CO)O[C@@]3(C(=O)N(C)c4ccccc43)[C@@H]2C)cc1 1.89

Specify reported composite z-score for the compound shown: CC(C)C(CO)N1C(=O)[C@@H]2C3C(=O)OCCC/C=C\[C@H]3OC23C=CCN(Cc2ccccc2)C(=O)[C@@H]13 (some centres not stated) 0.708
